system: UACC-62 melanoma; test: NCI-60 one-dose screen, 48 h (100 = growth as untreated, 0 = no growth, -100 = all killed); settings: 10 µM unless noted
The panel holds about 83,000 compounds, 20% with a hit somewhere; the sample as a whole holds those more often. Active and inactive are the calls of the source. How the source made its calls: active means growth percent below 10; inactive means the rest.
Here, each record is paired with measured growth data.
observation.type: growth

>>> df
                                    molecule                result_value
 0  O=S(=O)(N=C1C(Cl)=C(Cl)C(=NS(=O)(=O)c2ccccc2)C(Cl)=C1Cl)c1ccccc1            67.1% (inactive)
 1  CCN(CC)CCOc1ccc(C(=O)/C=C\c2ccc(Cl)cc2Cl)cc1             -34.5% (active)
 2  CC(O)Cc1c[nH]c(=O)[nH]c1=O (stereo unspecified)             106% (inactive)
 3  Oc1ccc(-c2nc3ccc4[nH]ncc4c3c3c2CCCC3)c(F)c1            11.7% (inactive)
 4  COc1ccc(C2C3=C(COC3=O)N(CCO)c3cc4c(cc32)OCO4)cc1OC (stereo unspecified)            71.8% (inactive)
 5  Cn1c(=O)[nH]c(=O)c2nc3c(nc21)-c1ccccc1C3=O            91.2% (inactive)
 6  COc1ccc(Cl)cc1Nc1nc(C(F)(F)F)ccc1C(=O)N/N=C/c1ccc([N+](=O)[O-])cc1            17.3% (inactive)
 7  CS(=O)(=O)Nc1cc(-c2ccc3ncnc(Nc4ccc(F)c(Cl)c4)c3c2)ccc1Cl            53.8% (inactive)
 8       Cc1ccc(NC(=O)c2cc3ccccc3cc2O)c(C)c1            66.1% (inactive)
 9  COc1cc(/C=C/C(=O)c2cc(OC)c(OC)c(OC)c2)ccc1Oc1nc2c(c(=O)n(C)c(=O)n2C)n1C             -74.1% (active)
10  C#COc1cccc(Nc2ncnc3cc(NC(=O)[C@H](C)Cl)ccc23)c1  22.1% [6.25 µM] (inactive)
11  [N-]=[N+]=NCC1OC(n2cnc3c(NC(=O)Nc4ccccc4)ncnc32)C2OC(=O)CC12 (stereo unspecified)             107% (inactive)
12  COc1ccc(C(=O)C/C(=C\c2ccc(O)c(OC)c2)C(=O)NN)cc1            75.8% (inactive)
13  CCCC(=O)NC(c1ccc2c(c1)OCO2)c1cc(Cl)c2cccnc2c1O (stereo unspecified)              11% (inactive)
14  O=C(NCc1ccc(Cn2c(=O)sn(-c3ccccc3)c2=O)cc1)OCc1ccc2cccc(O)c2n1             -61.9% (active)
15  C[N+]1=C(/C=C/c2ccccc2Cl)C(C)(C)c2ccccc21            91.9% (inactive)
16  Cn1cc(-c2csc(-c3cn(C)c4ccccc34)n2)c2cnccc21            61.4% (inactive)
17  Cn1c(C#N)ccc1-c1ccc(F)c(NC(=O)c2ccc(F)cc2)c1            60.8% (inactive)
18  Cc1nc([P+](c2ccccc2)(c2ccccc2)c2ccccc2)c(N2CCCCC2)o1            25.3% (inactive)
19  O=[N+]([O-])c1ccccc1Sc1ccccc1[N+](=O)[O-]             100% (inactive)
20  CC1(C)N=C(N)N=C(N)N1c1ccc(S(=O)(=O)Nc2nccs2)cc1            93.6% (inactive)
21  C=CCN=c1sc(-c2ccc3ccccc3c2)cn1NC(=O)c1cc2ccc1CCc1ccc(cc1)CC2            52.7% (inactive)
22  COc1ccc2c(c1)c(-c1nc(-c3ccc4ccccc4c3)cs1)cn2C            91.3% (inactive)
23  C=C1C(=O)O[C@H]2[C@H]1CC/C(COC(=O)NCc1ccc(Cn3c(=O)sn(-c4ccc(I)cc4)c3=O)cc1)=C\CC[C@@]1(C)O[C@@H]21            81.2% (inactive)
24  CS(=O)(=O)Nc1cc(-c2ccc3ncnc(Nc4ccc(OCc5ccccn5)c(Cl)c4)c3c2)cnc1Cl              4.79% (active)
25  CCOC(=O)CNC1=C(Cl)C(=O)N(Cc2ccc(Cl)cc2)C1=O             104% (inactive)
26  Cc1ccc(C)c2c1sc1nc(N3CCOCC3)c(C#N)c(=O)n12            90.2% (inactive)
27  Cc1ccc(OCCOCCOCCOc2ccc(C)n(O)c2=S)c(=S)n1O            15.6% (inactive)
28  C[C@H](c1nc2ccc(C#N)cc2[nH]1)[C@H]1CC[C@H]2[C@@H]3CCC4=CC(=O)CC[C@]4(C)[C@H]3CC[C@]12C            56.6% (inactive)
29  CCC(C)(C)c1ccc(Nc2ccc(Nc3ccc(C(C)(C)CC)cc3)cc2)cc1            83.2% (inactive)
30  O=C1O[C@@H](c2ccccc2Cl)[C@@H]2c3cc4c(cc3CCN12)OCO4            78.7% (inactive)

---

System: HOP-62 NSCLC
Test: NCI-60 one-dose screen, 48 h (100 = growth as untreated, 0 = no growth, -100 = all killed)
Conditions: 10 µM unless noted
Protocol: Growth inhibition of the HOP-62 human Non-Small Cell Lung tumor cell line is measured as a screen for anti-cancer activity. Cells are grown in 96 well plates and exposed to the test compound for 48 hours. Compounds are tested at a single concentration, which is 10^-5 M for most compounds. The reported endpoint is percent growth (GI% or GIPRCNT), where numbers from 0 - 100% represent growth inhibition, and numbers from -100% - 0 represent cell death. […]
The panel holds about 83,000 compounds, 20% with a hit somewhere; the sample as a whole holds those more often.
Class key for growth values: interval 1 (below 40%), interval 2 (40% to below 90%), interval 3 (90% or more)

molecule	tested.target	category.label
Brc1ccc(Nc2nc(Nc3cnc4ccccc4c3)c3[nH]cnc3n2)cc1	HOP-62 NSCLC	interval 2
COc1cc(/C=C/C(=O)c2cc(OC)c(OC)c(OC)c2)ccc1Oc1nc2c(c(=O)n(C)c(=O)n2C)n1C	HOP-62 NSCLC	interval 1
O=[N+]([O-])c1ccccc1Sc1ccccc1[N+](=O)[O-]	HOP-62 NSCLC	interval 3
C[C@@H]1NC(=O)[C@H](Cc2ccccc2)N(Cc2cccnc2)C1=O	HOP-62 NSCLC	interval 3
O=C(Nc1cccnc1Nc1ccccc1)c1cn(Cc2cccc(Oc3ccccc3)c2)nn1	HOP-62 NSCLC	interval 2
Cc1cccc(NC(=O)N/C(N)=N/c2nc3ccccc3s2)c1	HOP-62 NSCLC	interval 1
C1CCC(N2CN3c4nonc4N4CN(C5CCCCC5)CN5c6nonc6N(C2)C3C45)CC1 (stereo unspecified)	HOP-62 NSCLC	interval 3
C#CCOc1cccc(Nc2ncnc3c2ncn3C2CCN(C(=O)CCl)C2)c1 (stereo unspecified)	HOP-62 NSCLC	interval 1
C/C=C1/CN(CCCCC)CC[C@H]1C(=O)c1cc2ccccc2[nH]1	HOP-62 NSCLC	interval 2
COC(=O)Cn1c2c(c3c(OC)cccc31)C(=O)c1ccccc1-2	HOP-62 NSCLC	interval 2
O=C(CCCCCCCC(=O)N1CCCCC1)N1CCCCC1	HOP-62 NSCLC	interval 3
COCC(=O)Oc1cc(-c2ccc(C)cc2C)c(OC(=O)COC)c(-c2ccc(C)cc2C)c1	HOP-62 NSCLC	interval 2
CCOC(=O)CC[C@H](NC(=O)c1ccc(N(C)Cc2cnc3nc(N)nc(N)c3n2)c2ccccc12)C(=O)OCC	HOP-62 NSCLC	interval 1
c1ccc2cc(Cn3cc(CSc4nc5ccccc5s4)nn3)ccc2c1	HOP-62 NSCLC	interval 2
Nc1cc(-c2ccc(Cl)cc2)nn1-c1nnc(/C=C/c2ccco2)c(=O)[nH]1	HOP-62 NSCLC	interval 2
CC(O)CNC(Cc1ccccc1)c1ccc2c(c1)OCO2 (stereo unspecified)	HOP-62 NSCLC	interval 2
COC1/C=C/OC2(C)Oc3c(C)c(O)c4c(O)c(c(/C=N/N(c5ccccc5)c5ccccc5)c(O)c4c3C2=O)NC(=O)C(C)=C/C=C/C(C)C(O)C(C)C(O)C(C)C(OC(C)=O)C1C (stereo unspecified)	HOP-62 NSCLC	interval 2
COc1ccc(C/C(C)=C(\c2ccc(Cl)cc2)c2ccc(OCCN3CCCC3)cc2)cc1	HOP-62 NSCLC	interval 3
O=C(Nc1ncc(Cc2ccccc2)s1)c1sc2ccccc2c1Cl	HOP-62 NSCLC	interval 1
N#Cc1c(-c2ccccc2)nc2c(c(-c3ccccc3)nn2-c2ccccc2)c1-c1ccc(N2CCCCC2)cc1	HOP-62 NSCLC	interval 3
COCCn1cc(-c2csc(-c3c[nH]c4ccc(F)cc34)n2)c2cccnc21	HOP-62 NSCLC	interval 2
Cc1ccc2c(c1)sc1nc(-c3c[nH]c4ccccc34)c(Nc3ccccc3)n12	HOP-62 NSCLC	interval 3
CC(C)(C)c1ccc(C(=O)N/N=C/c2ccc(O)cc2O)cc1	HOP-62 NSCLC	interval 1
COc1cc(-c2cc(-c3ccc(Nc4nc(Nc5ccc(Cl)cc5)nc(Nc5ccc(Cl)cc5)n4)cc3)no2)cc(OC)c1OC	HOP-62 NSCLC	interval 2
COc1ccc(C2CC(c3ccccc3)=NN2C(=O)c2cc(OC)c(OC)c(OC)c2)cc1O (stereo unspecified)	HOP-62 NSCLC	interval 2
C[C@@H]1CN(c2cnc(C(=O)Nc3cc(F)cc4cccnc34)cn2)C[C@H](C)N1	HOP-62 NSCLC	interval 2
COc1ccc(N=C2NN=C(c3c[nH]c4ccccc34)CS2)cc1OC	HOP-62 NSCLC	interval 2
CC(=O)Nc1sc2c(c1-c1nc3ccccc3s1)CNC2	HOP-62 NSCLC	interval 1
O=c1c2ccccc2n(C[C@H]2CO2)c2ccccc12	HOP-62 NSCLC	interval 1
O=C(Nc1ccc(Oc2cccc(Cl)c2)c(Cl)c1)c1cccnn1	HOP-62 NSCLC	interval 3
Cc1[nH]n(-c2cccc(Cl)c2)c(=O)c1/C=C1\C=c2ccccc2=CC1=O	HOP-62 NSCLC	interval 1
OC1CSSC1Cn1cnc2c(Nc3ccc(OCc4cccc(F)c4)c(Cl)c3)ncnc21 (stereo unspecified)	HOP-62 NSCLC	interval 1
COc1nc(/C=C\Nc2ccc3c(c2)OCCOCCOCCOCCO3)nc(OC)n1	HOP-62 NSCLC	interval 3
Cc1nc([P+](c2ccccc2)(c2ccccc2)c2ccccc2)c(N2CCCCC2)o1	HOP-62 NSCLC	interval 1
O=C(C1=Cc2cc3ccccc3n2Cc2cnnn21)c1ccc(F)cc1	HOP-62 NSCLC	interval 3
O=C1OCC2=C1C(c1ccccc1)c1cc3c(cc1N2CCO)OCCO3 (stereo unspecified)	HOP-62 NSCLC	interval 1
CC1(C)CC(=O)C2=C(C1)C(c1ccc(Cl)cc1)n1ncc(C#N)c1N2 (stereo unspecified)	HOP-62 NSCLC	interval 3
c1cc(OCCN2CCCCCC2)ccc1CNc1ccc2nc(CCC3CCCCC3)[nH]c2c1	HOP-62 NSCLC	interval 2
